assayedSystem: serotonin 1A receptor (Rattus norvegicus)
Construct: To the receptor fraction of the hippocampus were added a test compound and 0.5 nM of [^3H]; 8-hydroxy-dipropylaminotetralin; from tissue; host or cells: rat hippocampus membrane fraction
Sequence (P19327 whole entry): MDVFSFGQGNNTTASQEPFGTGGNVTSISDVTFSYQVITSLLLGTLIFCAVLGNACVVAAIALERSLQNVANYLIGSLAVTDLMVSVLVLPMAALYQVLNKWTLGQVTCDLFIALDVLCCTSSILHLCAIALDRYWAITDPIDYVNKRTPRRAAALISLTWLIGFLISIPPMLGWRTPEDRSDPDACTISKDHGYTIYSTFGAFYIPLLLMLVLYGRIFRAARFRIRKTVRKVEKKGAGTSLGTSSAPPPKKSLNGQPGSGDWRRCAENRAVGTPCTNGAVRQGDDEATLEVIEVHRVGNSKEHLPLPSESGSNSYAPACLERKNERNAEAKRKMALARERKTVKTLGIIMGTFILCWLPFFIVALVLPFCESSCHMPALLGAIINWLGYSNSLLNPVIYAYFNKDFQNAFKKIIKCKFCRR
methodSummary: Binding test on [3H] 8-hydroxy-dipropylaminotetralin, hippocampus receptor fraction
Design: species or system SD rats
conditionContext: rat hippocampus receptor fraction, 0.5 nM [3H] 8-OH-DPAT, room temperature 30 min; read-out: 5HT1
pKi: −log10 of the molar value. Where a name gives a salt, the structure may show the parent alone.
Would you mind labelling by pKi? At or over 8 is True, under is False.

Previously resolved entries follow.
CCN1CCN(c2nc(-c3ccc(OCCO)c(F)c3)cc3ccccc23)CC1 [Example 369, dihydrochloride] : False
CCN1CCN(c2nc(C#CC(O)c3ccccc3)cc3ccccc23)CC1 (stereo not shown) [Example 310, hydrochloride] : True
CCN1CCN(c2nc(-c3ccc(CCCF)nc3)cc3ccccc23)CC1 : True
CCN1CCN(c2nc(C=C(COC)c3ccccc3)cc3ccccc23)CC1 (stereo in doubt) [Example 208, Oxalate] : False
CCN1CCN(c2nc(-c3ccc(OCC(C)(C)O)cc3)cc3ccsc23)CC1 [Example 260, dihydrochloride] : False

Does the reported pKi for CCN1CCN(c2nc(/C=C/c3ccccc3OC)cc3ccccc23)CC1 [Example 195, Oxalate] fall at or above the 8 mark?
False

Could you do the same for `CCN1CCN(c2nc(-c3ccnc(OCCOC)c3)cc3ccccc23)CC1` , please?
False

Queued: CCN1CCN(c2nc(-c3cncc(CCCOC)c3)cc3ccccc23)CC1 [Example 140, Oxalate]
False

Also CCCC(O)c1ccc(-c2cc3sccc3c(N3CCN(CC)CC3)n2)cc1 (stereo not shown) ?
True

Check CCN1CCN(c2nc(-c3ccc(C(=O)CC(C)C)cc3)cc3ccsc23)CC1 [Example 272, dihydrochloride] too.
False

Please do the same for CCN1CCN(c2nc(-c3cc(F)c(OCCF)c(F)c3)cc3ccccc23)CC1 [Example 371, dihydrochloride] as well.
False

Queued: CCNS(=O)(=O)c1ccc(-c2cc3ccccc3c(N3CCN(CC)CC3)n2)cc1 [Example 357, dihydrochloride]
True

Next record, please: CN(C)CCC=C1c2ccccc2C=Cc2ccccc21 [Cyclobenzaprine, cyclobenzaprine hydrochloride, reference compound]
False

Please answer likewise for CCN1CCN(c2nc(-c3ccc(S(=O)(=O)NC)cc3)cc3ccccc23)CC1 [Example 361, dihydrochloride]
True

What do you get for `CCN1CCN(c2nc(-c3cc(F)c(OCCO)c(F)c3)cc3ccccc23)CC1` ?
False

Thanks! And `CCN1CCN(c2nc(-c3ccc(OCC4OCCO4)cc3)cc3ccccc23)CC1` ?
False
